Target chain: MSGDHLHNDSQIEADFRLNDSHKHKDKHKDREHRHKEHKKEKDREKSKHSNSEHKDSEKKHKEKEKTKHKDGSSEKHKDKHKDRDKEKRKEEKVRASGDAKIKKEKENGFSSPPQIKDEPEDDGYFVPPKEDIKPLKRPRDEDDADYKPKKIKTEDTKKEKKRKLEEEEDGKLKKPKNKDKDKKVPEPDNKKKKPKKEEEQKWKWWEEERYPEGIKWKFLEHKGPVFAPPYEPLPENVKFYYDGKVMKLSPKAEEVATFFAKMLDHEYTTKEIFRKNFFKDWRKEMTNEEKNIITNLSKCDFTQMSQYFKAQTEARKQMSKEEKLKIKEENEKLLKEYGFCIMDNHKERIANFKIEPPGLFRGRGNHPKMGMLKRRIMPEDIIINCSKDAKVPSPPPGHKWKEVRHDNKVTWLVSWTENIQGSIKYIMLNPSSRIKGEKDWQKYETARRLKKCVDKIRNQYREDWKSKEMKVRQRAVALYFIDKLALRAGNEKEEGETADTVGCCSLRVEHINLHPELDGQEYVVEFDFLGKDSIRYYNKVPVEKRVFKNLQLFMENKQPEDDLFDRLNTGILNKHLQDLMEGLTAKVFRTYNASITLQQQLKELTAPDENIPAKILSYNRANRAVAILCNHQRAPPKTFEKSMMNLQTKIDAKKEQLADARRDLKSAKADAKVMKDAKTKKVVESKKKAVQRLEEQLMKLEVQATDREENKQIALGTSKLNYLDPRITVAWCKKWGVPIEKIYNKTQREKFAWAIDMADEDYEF
Value kind: IC50 (µM)
Give the number; µM is assumed, so skip it.

| Entry smiles | Unit of measure | Value measured |
| --- | --- | --- |
| COc1c(N2CC[C@@H](CN)C2)c(F)cc2c(=O)c(C(=O)O)cn(Cc3ccc(-c4ccc(F)cc4)cc3)c12 | µM | 60.9 |

Consider the compound shown here: COc1c(N2CC[C@@H](CN)C2)c(F)cc2c(=O)c(C(=O)NO)cn(Cc3ccc(-c4ccccc4)cc3)c12 What is its recorded IC50?
35.9

Consider the compound shown here: O=C(O)c1cn(Cc2ccc(-c3ccccc3)cc2)c2cc(N3C[C@H]4CCNC[C@H]4C3)c(F)cc2c1=O What is its recorded IC50?
61

Consider the compound shown here: CNCCCCNc1cc2c(cc1F)c(=O)c(C(=O)O)cn2Cc1ccc(-c2ccccc2)cc1 What is its recorded IC50?
88.3
